The reported numbers originate from paper PMC9633773.

Target or test system: Trx-6His-HRV3C-BCL6 (Thioredoxin-6His-tagged BCL6 BTB, uncleaved) (human, UniProt P41182 5-129)
Experiment: fluorescence polarisation; direct binding of the BCOR-AF633 probe to BCL6 BTB, FP KD (Figure S1A)
Condition details: both partners purified
Ends that are not written are not given here.
Property: pKd
A value of pKd is the negative decimal logarithm of a concentration given in moles per litre.

Need pKd, item RSEIISTAPSSWVVPGPC(Alexa Fluor 633 C5 maleimide)-NH2 (added C-terminal cysteine that carries the dye; also called BCOR-AF633; BCOR-A633; source: synthetic peptide, bought: Cambridge Research Biochemicals) [Alexa Fluor 633-conjugated BCOR peptide (RSEIISTAPSSWVVPGP-Cys(AF633)-amide)] 5.76
